From: patent US10974081B2

experiment-description: Plasma concentration (pharmacokinetics) after single oral dose in humans
Format: in vivo, human
test-context: male, human, plasma, po, 3 mg, 3 mg single oral dose; read-out: tmax Mean
metric: Tmax
Report field: quantity (unit follows the number).

input: Determine from records and report Tmax for O=C(O)c1nc2ccccc2n([C@H]2C[C@H]3CCC[C@@H](C2)N3C2CC3CCCC(C3)C2)c1=O (stereo partly shown)
output: 1.6 h

----------
experiment-description: Plasma concentration (pharmacokinetics) after single oral dose in humans
Type: in vivo, human
test-context: male, human, plasma; 30 mg single oral dose; read-out: AUCinf Mean
metric: AUC(0-inf) (µg·h/mL)
Numeric only. Scale: µg·h/mL

input: Quickly give me recorded AUC(0-inf) for O=C(O)c1nc2ccccc2n([C@H]2C[C@H]3CCC[C@@H](C2)N3C2CC3CCCC(C3)C2)c1=O (stereo partly shown) [Compound (1D)]
output: 0.512
